# Condition set: in methanol, 298.15 K
Measured attribute: solubility (mole fraction)

>  <Sample smiles>
COC(=O)Nc1nc2ccccc2[nH]1

>  <Value>
7.77e-05

$$$$

---

# Condition set: in ethanol, 283.15 K

>  <Sample smiles>
COC(=O)Nc1nc2ccccc2[nH]1

>  <solubility (mole fraction)>
1.05e-05

$$$$

---

# Condition set: in n-butanol, 313.15 K

>  <Sample smiles>
COC(=O)Nc1nc2ccccc2[nH]1

>  <solubility (mole fraction)>
5.07e-05

$$$$

---

# Condition set: in n-butanol, 323.15 K

>  <Sample smiles>
COC(=O)Nc1nc2ccccc2[nH]1

>  <solubility (mole fraction)>
0.000111

$$$$

---

# Condition set: in n-butanol, 303.15 K

>  <Sample smiles>
COC(=O)Nc1nc2ccccc2[nH]1

>  <solubility (mole fraction)>
2.28e-05

$$$$

---

# Condition set: in n-pentanol, 293.15 K
Measured attribute: solubility (mole fraction)

>  <Sample smiles>
COC(=O)Nc1nc2ccccc2[nH]1

>  <Value>
6.19e-06

$$$$

---

# Condition set: in methanol, 308.15 K

>  <Sample smiles>
COC(=O)Nc1nc2ccccc2[nH]1

>  <solubility (mole fraction)>
0.000118

$$$$

---

# Condition set: in n-propanol, 293.15 K
Measured attribute: solubility (mole fraction)

>  <Sample smiles>
COC(=O)Nc1nc2ccccc2[nH]1

>  <Measured attribute>
solubility (mole fraction)

>  <Value>
1.3e-05

$$$$

---

# Condition set: in methanol, 278.15 K
Measured attribute: solubility (mole fraction)

>  <Sample smiles>
COC(=O)Nc1nc2ccccc2[nH]1

>  <Measured attribute>
solubility (mole fraction)

>  <Value>
3.19e-05

$$$$

---

# Condition set: in n-pentanol, 308.15 K

>  <Sample smiles>
COC(=O)Nc1nc2ccccc2[nH]1

>  <solubility (mole fraction)>
2.87e-05

$$$$

---

# Condition set: in n-propanol, 308.15 K
Measured attribute: solubility (mole fraction)

>  <Sample smiles>
COC(=O)Nc1nc2ccccc2[nH]1

>  <Value>
3.92e-05

$$$$

---

# Condition set: in n-propanol, 313.15 K

>  <Sample smiles>
COC(=O)Nc1nc2ccccc2[nH]1

>  <solubility (mole fraction)>
5.57e-05

$$$$

---

# Condition set: in n-propanol, 298.15 K
Measured attribute: solubility (mole fraction)

>  <Sample smiles>
COC(=O)Nc1nc2ccccc2[nH]1

>  <Value>
1.89e-05

$$$$

---

# Condition set: in ethanol, 323.15 K

>  <Sample smiles>
COC(=O)Nc1nc2ccccc2[nH]1

>  <solubility (mole fraction)>
0.000134

$$$$

---

# Condition set: in methanol, 288.15 K
Measured attribute: solubility (mole fraction)

>  <Sample smiles>
COC(=O)Nc1nc2ccccc2[nH]1

>  <Measured attribute>
solubility (mole fraction)

>  <Value>
5.2e-05

$$$$

---

# Condition set: in n-pentanol, 303.15 K
Measured attribute: solubility (mole fraction)

>  <Sample smiles>
COC(=O)Nc1nc2ccccc2[nH]1

>  <Measured attribute>
solubility (mole fraction)

>  <Value>
1.69e-05

$$$$

---

# Condition set: in n-pentanol, 323.15 K

>  <Sample smiles>
COC(=O)Nc1nc2ccccc2[nH]1

>  <solubility (mole fraction)>
0.000101

$$$$

---

# Condition set: in n-butanol, 278.15 K

>  <Sample smiles>
COC(=O)Nc1nc2ccccc2[nH]1

>  <solubility (mole fraction)>
2.12e-06

$$$$
